Target: T1, human DLL3-His (human, UniProt Q9NYJ7 27-492)
T1 construct: also called hDLL3
T1 sequence: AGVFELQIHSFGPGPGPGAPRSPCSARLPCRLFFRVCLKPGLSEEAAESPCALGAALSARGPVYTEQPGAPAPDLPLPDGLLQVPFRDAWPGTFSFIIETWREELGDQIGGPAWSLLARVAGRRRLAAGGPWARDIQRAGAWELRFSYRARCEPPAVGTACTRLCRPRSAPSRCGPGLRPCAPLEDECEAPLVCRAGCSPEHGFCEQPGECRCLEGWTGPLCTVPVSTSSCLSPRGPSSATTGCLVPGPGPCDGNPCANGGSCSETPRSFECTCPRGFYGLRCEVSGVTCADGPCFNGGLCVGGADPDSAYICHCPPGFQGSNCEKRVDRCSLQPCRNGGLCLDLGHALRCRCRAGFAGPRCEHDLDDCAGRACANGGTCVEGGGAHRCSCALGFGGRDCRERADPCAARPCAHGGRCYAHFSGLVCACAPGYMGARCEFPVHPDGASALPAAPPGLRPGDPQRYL
Test: SPR (Biacore 8K), 37 C, antibody captured on anti-human Fc, DLL3-His 0.411-300 nM injected, 1:1 fit
endpoint: kon (M⁻¹ s⁻¹)
Numbers only, in M⁻¹ s⁻¹.

Worked set:
[
  {
    "binder": "humanized anti-DLL3 antibody h5E7-YD-A6 (antibody, V domains shown, Expressed as IgG1 mAb: human IgG1 CH1-CH2-CH3 and human constant kappa; also called A6 variant) VH: QVQLVQSGAEVKKPGASVKVSCKASGFNIKDDYIHWVRQAPGQGLEWMGWIDSENGDTEYASKFQGRVTITADTSANTAYMELSSLRSEDTAVYYCATSSYWSYDLFVYWGQGTLVTVSS VL: DVQMTQSPSSLSASVGDRVTITCKSSQSLLHSNGKTYLNWLQQKPGQAPKLLLYLVSKLESGVPSRFSGSGSGTDYTLTISSLQPEDFATYYCLQTTHLYTFGQGTKLEIK",
    "reading_unit": "M⁻¹ s⁻¹",
    "kon": 396000
  },
  {
    "binder": "humanized anti-DLL3 antibody h5E7-YD-F3 (antibody, V domains shown, Expressed as IgG1 mAb: human IgG1 CH1-CH2-CH3 and human constant kappa; also called F3 variant) VH: QVQLVQSGAEVKKPGASVKVSCKASGFNIKDDYIHWVRQAPGQGLEWMGWIDSENGDTEYASKFQGRVTITADTSANTAYMELSSLRSEDTAVYYCATSSYWSYDLLVYWGQGTLVTVSS VL: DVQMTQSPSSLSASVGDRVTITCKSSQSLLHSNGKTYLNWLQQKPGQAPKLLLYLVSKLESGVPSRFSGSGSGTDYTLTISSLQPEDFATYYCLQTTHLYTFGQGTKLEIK",
    "reading_unit": "M⁻¹ s⁻¹",
    "kon": 312000
  }
]

Moving on to another binder below.
The value of kon measured for the binder humanized anti-DLL3 antibody h5E7-YD-C6 (antibody, V domains shown, Expressed as IgG1 mAb: human IgG1 CH1-CH2-CH3 and human constant kappa; also called C6 variant) VH: QVQLVQSGAEVKKPGASVKVSCKASGFNIKDDYIHWVRQAPGQGLEWMGWIDSENGDTEYASKFQGRVTITADTSANTAYMELSSLRSEDTAVYYCATSEYYSYDLFVYWGQGTLVTVSS VL: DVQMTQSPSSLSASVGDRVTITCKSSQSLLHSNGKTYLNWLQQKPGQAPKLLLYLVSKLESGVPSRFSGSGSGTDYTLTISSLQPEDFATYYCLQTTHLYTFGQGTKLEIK turned out to be 409000
